- Tested target: Etv1 Y396F (human, UniProt P50549 326-429, Y396F)
- Sequence (P50549 326-429 Y396F): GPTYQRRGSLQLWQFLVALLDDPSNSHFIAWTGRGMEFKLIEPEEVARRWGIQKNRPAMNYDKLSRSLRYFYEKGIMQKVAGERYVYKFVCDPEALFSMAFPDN
- Method: EMSA; 2 nM probe; 10 mM TCEP; EMSA: 50 mM Tris-HCl pH 7.5, 50 mM NaCl, 2 mM MgCl2, 0.01% Tween 20, 5% glycerol, 1 h at room temperature; proteins reduced with 10 mM TCEP unless stated; 10% native PAGE
- Test context: protein: recombinant; tags: N-terminal His6 removed by TEV (leaves SM); blunt
Parameter: pKd
Units for pKd: none; it is -log10 of a concentration expressed in mol/L.

The binder identified as Etv1ALF/Etv1ALR EMSA probe (dsDNA) DNA 1: ATCTCACCGGAAGTGTAGCA DNA 2: TGCTACACTTCCGGTGAGAT registered its pKd at 5.58
